# Lookup of reported EC50 keyed by entry
# TARGET OR SYSTEM: mAChR M1 (UniProt P11229)
# METHOD: mAChR M1 cell-based functional assay (calcium mobilization, potentiation of EC20 acetylcholine response)
# APPLIED CONDITIONS: positive allosteric modulator activity, concentration-dependent increase in EC20 acetylcholine response, CHO-K1 cells; >10 μM estimated where no plateau but >20% increase in ACh response

Determine its reported EC50: "Cn1cc2c(-c3ccc(CN4Cc5ccc6nccn6c5C4=O)c(F)c3)cccc2n1"
2200 nM

Please report the measured EC50 for "O=C1c2c(ccc3nncn23)CN1Cc1ccc(-c2ccc3ncccc3c2)cc1F"
1570 nM

Please list EC50 recorded for the compound "Cn1cc(-c2ccc(CN3Cc4ccc5nccn5c4C3=O)c(F)c2)cn1"
2260 nM

Provide one value: measured EC50 of "Cc1cc(-c2ccc(CN3Cc4ccc5nncn5c4C3=O)c(F)c2)cc2cn(C)nc12"
618 nM

Give the reported value of EC50 for this record: "Cc1ccc(-c2ccc(CN3Cc4ccc5nncn5c4C3=O)c(F)c2)c2cn(C)nc12"
1060 nM

Determine its reported EC50: "O=C1c2c(ccc3nccn23)CN1Cc1ccc(N2CCOCC2)nc1"
> 10000 nM

Query EC50 for "O=C1c2c(ccc3nncn23)CN1Cc1cc(-c2ccc3ncccc3c2)ccc1F"
> 30000 nM

Please indicate EC50 recorded for "O=C1c2c(ccc3nncn23)CN1Cc1c(F)cc(-c2cnc3ccccc3c2)cc1F"
1820 nM

Fill in reported EC50 for this entry: "O=C1c2c(ccc3nccn23)CN1Cc1ccc(-n2nccn2)cc1"
> 10000 nM

* * *

Below: a set of entries, each annotated with reported M1 AChmax (%).
# TARGET OR SYSTEM: mAChR M1 (UniProt P11229)
# METHOD: mAChR M1 cell-based functional assay (calcium mobilization, potentiation of EC20 acetylcholine response)
# APPLIED CONDITIONS: maximal response as % of ACh maximum, CHO-K1 cells expressing M1
Express your answer in %, writing the number without its unit.

Below, 6 compounds whose answers are already recorded.
| CHEMICAL STRUCTURE | UNIT TAG | RECORDED NUMBER |
| --- | --- | --- |
| Cn1cc2c(-c3cc(F)c(CN4Cc5ccc6nccn6c5C4=O)c(F)c3)cccc2n1 | % | 72 |
| Cn1cc(-c2ccc(CN3Cc4ccc5nncn5c4C3=O)c(F)c2)cn1 | % | 86 |
| Cc1ccc(CN2Cc3ccc4nccn4c3C2=O)cn1 | % | 25 |
| O=C1c2c(ccc3nncn23)CN1Cc1c(F)cc(-c2cnc3ccccc3c2)cc1F | % | 57 |
| Cn1cc(-c2cc(F)c(CN3Cc4ccc5nncn5c4C3=O)c(F)c2)cn1 | % | 83 |
| COc1ccc(-c2cc(F)c(CN3Cc4ccc5nncn5c4C3=O)c(F)c2)cn1 | % | 70 |

Tell me its M1 AChmax (%) on mAChR M1 (UniProt P11229): "O=C1c2c(ccc3nncn23)CN1Cc1ccc(-c2cnc3ccccc3c2)cc1F"
73

Write down the reported M1 AChmax (%) (system: mAChR M1 (UniProt P11229)) of "O=C1c2c(ccc3nccn23)CN1Cc1c(F)cc(-c2ccc3ncccc3c2)cc1F"
28

Provide measured M1 AChmax (%) on mAChR M1 (UniProt P11229) for "Cc1nnc2ccc3c(n12)C(=O)N(Cc1c(F)cc(-c2ccc4nn(C)cc4c2)cc1F)C3" please.
76

Tell me its M1 AChmax (%) on mAChR M1 (UniProt P11229): "O=C1c2c(ccc3nccn23)CN1Cc1ccc(N2CCOCC2)nc1"
26

Provide M1 AChmax (%), system mAChR M1 (UniProt P11229), entry "Cn1cc2cc(-c3ccc(CN4Cc5ccc6nncn6c5C4=O)c(F)c3)ccc2n1"
90

Check mAChR M1 (UniProt P11229) data and give M1 AChmax (%) for "Cn1cc2c(-c3ccc(CN4Cc5ccc6nncn6c5C4=O)c(F)c3)cccc2n1" .
78

Output reported M1 AChmax (%) of the compound "Cn1cc2cc(-c3cc(F)c(CN4Cc5ccc6nncn6c5C4=O)c(F)c3)ccc2n1" on mAChR M1 (UniProt P11229).
84

Tell me M1 AChmax (%) of "Cn1cc2cc(-c3ccc(CN4Cc5ccc6nccn6c5C4=O)c(F)c3)ccc2n1" when tested on mAChR M1 (UniProt P11229).
62

Answer with M1 AChmax (%) of "O=C1c2c(ccc3nccn23)CN1Cc1ccc(-n2cccn2)cc1F" measured for mAChR M1 (UniProt P11229).
26

Please respond with reported M1 AChmax (%) (system mAChR M1 (UniProt P11229)) for "Cn1cc(-c2cc(F)c(CN3Cc4ccc5nccn5c4C3=O)c(F)c2)cn1" .
67.7

Write down the reported M1 AChmax (%) (system: mAChR M1 (UniProt P11229)) of "Cc1nnc2ccc3c(n12)C(=O)N(Cc1c(F)cc(-c2cccc4nn(C)cc24)cc1F)C3"
81
